Recorded values, source ChEMBL document CHEMBL1177813.

Listing of recorded IC50 by entry.
Experimental Target: Gastrin/cholecystokinin type B receptor (Homo sapiens)
Sequence (P32239 whole entry): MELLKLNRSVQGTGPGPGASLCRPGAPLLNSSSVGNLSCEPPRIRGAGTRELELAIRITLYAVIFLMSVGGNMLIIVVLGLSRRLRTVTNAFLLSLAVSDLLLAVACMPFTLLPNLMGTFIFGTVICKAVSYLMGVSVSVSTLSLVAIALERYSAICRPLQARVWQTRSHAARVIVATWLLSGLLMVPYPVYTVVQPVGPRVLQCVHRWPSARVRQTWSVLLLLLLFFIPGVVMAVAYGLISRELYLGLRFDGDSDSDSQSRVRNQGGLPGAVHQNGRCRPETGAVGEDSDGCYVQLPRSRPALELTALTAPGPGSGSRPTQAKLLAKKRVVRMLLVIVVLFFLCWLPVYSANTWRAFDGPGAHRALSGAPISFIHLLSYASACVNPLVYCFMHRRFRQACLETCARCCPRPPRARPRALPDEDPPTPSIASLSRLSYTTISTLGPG
Procedure Details: Displacement of [125I]CCK-8(SO3) from human CCK2 receptor expressed in human HEK293 cells
Your answer is read as nM, so omit the unit and give the number.

Compound String: CCCC[C@H](NC(=O)[C@H](Cc1c[nH]c2ccccc12)NC(=O)[C@H](CCCNC(=N)N)NC(=O)[C@@H](Cc1ccc2ccccc2c1)NC(=O)[C@H](Cc1cnc[nH]1)NC(=O)[C@H](Cc1ccccc1)NC(=O)CNC(=O)[C@@H](C)NC(=O)[C@@H](N)Cc1ccc(O)cc1)C(=O)N[C@@H](CC(=O)O)C(=O)N[C@@H](Cc1ccccc1)C(N)=O
Units Text: nM
IC50: 126

Compound String: CCCC[C@H](NC(=O)[C@H](Cc1c[nH]c2ccccc12)NC(=O)[C@H](CCCN=C(N)N)NC(=O)[C@@H](Cc1ccc2ccccc2c1)NC(=O)[C@H](Cc1cnc[nH]1)NC(=O)[C@H]1Cc2ccccc2CN1C(=O)[C@@H](N)Cc1c(C)cc(O)cc1C)C(=O)N[C@@H](CC(=O)O)C(=O)N[C@@H](Cc1ccccc1)C(N)=O
Units Text: nM
IC50: 126

Compound String: CCCC[C@H](NC(=O)[C@H](Cc1c[nH]c2ccccc12)NC(=O)[C@H](CCCNC(=N)N)NC(=O)[C@@H](Cc1ccccc1)NC(=O)[C@H](Cc1cnc[nH]1)NC(=O)[C@H](Cc1ccccc1)NC(=O)CNC(=O)[C@@H](C)NC(=O)[C@@H](N)Cc1ccc(O)cc1)C(=O)N[C@@H](CC(=O)O)C(=O)N[C@@H](Cc1ccccc1)C(N)=O
Units Text: nM
IC50: 31.6

Compound String: CCCC[C@H](NC(=O)[C@H](Cc1c[nH]c2ccccc12)NC(=O)[C@H](CCCNC(=N)N)NC(=O)[C@@H](Cc1ccc2ccccc2c1)NC(=O)[C@H](Cc1cnc[nH]1)NC(=O)[C@H](Cc1ccccc1)NC(=O)CNC(=O)[C@@H](C)NC(=O)[C@@H](N)Cc1c(C)cc(O)cc1C)C(=O)N[C@@H](CC(=O)O)C(=O)N[C@@H](Cc1ccccc1)C(N)=O
Units Text: nM
IC50: 126

Next compound, IC50 to be filled in.
Request: What does the data say about its IC50? Entry: CCCC[C@H](NC(=O)[C@H](Cc1c[nH]c2ccccc12)NC(=O)[C@H](CCCNC(=N)N)NC(=O)[C@@H](Cc1ccc2ccccc2c1)NC(=O)[C@H](Cc1cnc[nH]1)NC(=O)[C@H](Cc1ccccc1)NC(=O)[C@@H](C)NC(=O)[C@@H](N)Cc1ccc(O)cc1)C(=O)N[C@@H](CC(=O)O)C(=O)N[C@@H](Cc1ccccc1)C(N)=O
Result: 200
